experiment: molar heat capacity at constant pressure
condition.notes: 338.15 K; 101.33 kPa; Crystal; Small sample (50 mg) DSC
observable: molar heat capacity at constant pressure (J/K/mol)

Nc1cc(O)nc(O)n1 ... 152.3
Cn1c(N)cc(=O)n(C)c1=O ... 206
Cn1c(N)cc(=O)[nH]c1=O ... 172.2
Nc1c[nH]c(=O)[nH]c1=O ... 150.6

---

experiment: molar heat capacity at constant pressure
condition.notes: 318.15 K; 101.33 kPa; Crystal; Small sample (50 mg) DSC
observable: molar heat capacity at constant pressure (J/K/mol)

Nc1c[nH]c(=O)[nH]c1=O [2,4(1H,3H)-pyrimidinedione, 5-amino-] ... 148
Cn1c(N)cc(=O)n(C)c1=O [6-amino-1,3-dimethyluracil] ... 197.3
Nc1cc(O)nc(O)n1 [6-aminouracil] ... 149.6
Cn1c(N)cc(=O)[nH]c1=O [6-amino-1-methyluracil] ... 169.2

---

experiment: molar heat capacity at constant pressure
condition.notes: 298.15 K; 101.33 kPa; Crystal; Small sample (50 mg) DSC
observable: molar heat capacity at constant pressure (J/K/mol)

Nc1cc(O)nc(O)n1 [6-aminouracil] ... 147
Nc1c[nH]c(=O)[nH]c1=O [2,4(1H,3H)-pyrimidinedione, 5-amino-] ... 145
Cn1c(N)cc(=O)[nH]c1=O [6-amino-1-methyluracil] ... 166.2
Cn1c(N)cc(=O)n(C)c1=O [6-amino-1,3-dimethyluracil] ... 189

---

experiment: molar heat capacity at constant pressure
condition.notes: 323.15 K; 101.33 kPa; Crystal; Small sample (50 mg) DSC
observable: molar heat capacity at constant pressure (J/K/mol)

Cn1c(N)cc(=O)[nH]c1=O ... 170
Nc1c[nH]c(=O)[nH]c1=O ... 148.4
Nc1cc(O)nc(O)n1 ... 150.3
Cn1c(N)cc(=O)n(C)c1=O ... 199.5

---

experiment: molar heat capacity at constant pressure
condition.notes: 343.15 K; 101.33 kPa; Crystal; Small sample (50 mg) DSC
observable: molar heat capacity at constant pressure (J/K/mol)

Nc1cc(O)nc(O)n1 ... 153
Nc1c[nH]c(=O)[nH]c1=O ... 151.3
Cn1c(N)cc(=O)n(C)c1=O ... 208
Cn1c(N)cc(=O)[nH]c1=O ... 173
